Reference source for all entries: the domain aggregation screens of Martell et al. (2025)

ASSAY INFO: soluble fraction after stress (log2 fold change); higher = more stays soluble; pooled small domains, quantitative proteomics;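 also: 20 min heating vs room temperature control held 20 min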
CONDITION DETAILS: stress: 75 degC

# SEQUENCE, soluble fraction (log2)
records = [
    ("HMEDVRSLTGPEKAAIILLSLGEEHGQGVWRMFDDEEVKEVSQIMANLGTISASVVEKLLVEFVSQMST", -0.96),
    ("HMNVEQQNQARENIKRLMEEQGLSQPKLSEKAGIAFGTLSRILRGKQDLTIQTAEKIADALGLSVYDLAE", 0.31),
    ("HMSSTSTKTQNIVHIVKSGETLSAIASKYGVSVDNIKKWNNLSSDKLSIGQKLKINPTTQTSS", 0.29),
    ("HMATSLTEQEKLIFGLLKKQSPIELSSLKEQAGLSNKKWDKAIKGLSTQQLAKVTKTENGLFVHLLQ", 0.00913),
    ("HMSQIQIKLDQAIMQLPEKQRFVFMLRYFEELPYEKIAQITETSIGGAKANFHQALKKMQEIIQ", -2.96),
    ("HMAERVWASLLEIKNAVAIEDAKTLEDVDNSEKIAEERIAALNDDAKHPLAIAFIGKLRQDIAEKKIELA", 0.413),
    ("HMKEIKAPNKINAHLIEEWRSQHPTELFPEEKVDLIYYKGEEYYFVIEEKNELGEIEEWYFAYDGGIDYV", 0.372),
    ("HMGESVVVPDLRGKTLEEARAILKKVDLDYEINDSTYSKTAVPGTIRDIVPAPGSHVKAGRILFVSING", -0.553),
]
